Listed here: items and their measured pIC50.
# tested.target: Aldo-keto reductase family 1 member B1 (Rattus norvegicus)
pIC50: −log10 of the molar value.

Guide cases for pIC50, answers given:
1) C[C@@H]1O[C@@H](OC[C@H]2O[C@@H](Oc3c(-c4ccc(O)cc4)oc4cc(O)cc(O)c4c3=O)[C@H](O)[C@@H](O)[C@@H]2O)[C@H](O)[C@H](O)[C@H]1O [NICOTIFLOROSIDE]	4.95
2) C=CCCCCC/C=C/[C@H](O)C#CC#C[C@@H](O)[C@H](C)O	< 4.52

Q: Lab note: need pIC50 with Aldo-keto reductase family 1 member B1 (Rattus norvegicus) for entry C=CCc1ccc(O[C@@H]2O[C@H](CO)[C@@H](O)[C@H](O)[C@H]2O)c(OC)c1 , please look it up.
Result: < 4.52

Data origin: ChEMBL document CHEMBL2010655
